# ASSAY_SUMMARY: Plasma concentration in CD1 mouse at 1 mg/kg, iv at 6 hrs
ASSAY_READOUT: concentration at 6 h

CCO[C@@H]([C@H]1C[C@@H](C)[C@H]2[C@H](O1)[C@H](O)[C@@]1(C)[C@@H]3CC[C@H]4C(C)(C)[C@@H](O[C@H]5CN(C)CCO5)CC[C@@]45C[C@@]35CC[C@]21C)C(C)(C)O: 21 nM
CCO[C@@H]([C@H]1C[C@@H](C)[C@H]2[C@H](O1)[C@H](O)[C@@]1(C)[C@@H]3CC[C@H]4C(C)(C)[C@@H](OC(=O)N5CCN(C)CC5)CC[C@@]45C[C@@]35CC[C@]21C)C(C)(C)O: 95 nM
CCO[C@@H]([C@H]1C[C@@H](C)[C@H]2[C@H](O1)[C@H](O)[C@@]1(C)[C@@H]3CC[C@H]4C(C)(C)[C@@H](OC(=O)N(C)C5CN(C)C5)CC[C@@]45C[C@@]35CC[C@]21C)C(C)(C)O: 566 nM
CCO[C@@H]([C@H]1C[C@@H](C)[C@H]2[C@H](O1)[C@H](O)[C@@]1(C)[C@@H]3CC[C@H]4C(C)(C)[C@@H](OC(=O)N5CCN(CCOC)CC5)CC[C@@]45C[C@@]35CC[C@]21C)C(C)(C)O: 261 nM

----------
# ASSAY_SUMMARY: Modulation of gamma secretase in CHO-2B7 cells assessed as reduction in amyloid beta 42 level after 5 hrs by MSD ELISA
# Type: cell-based
# STATED_CONDITIONS: Cricetulus griseus, CHO-2B7, 5 h
Let's look at some molecules and their measured IC50.
ASSAY_READOUT: IC50 (nM)

CC(C)CO[C@@H]([C@H]1C[C@@H](C)[C@H]2[C@H](O1)[C@H](O)[C@@]1(C)[C@@H]3CC[C@H]4C(C)(C)[C@@H](O[C@H]5CN(C6COC6)CCO5)CC[C@@]45C[C@@]35CC[C@]21C)C(C)(C)O: 3000
CCO[C@@H]([C@H]1C[C@@H](C)[C@H]2[C@H](O1)[C@H](O)[C@@]1(C)[C@@H]3CC[C@H]4C(C)(C)[C@@H](O[C@H]5CN(C6CN(C)C6)CCO5)CC[C@@]45C[C@@]35CC[C@]21C)C(C)(C)O: 100
CCO[C@@H]([C@H]1C[C@@H](C)[C@H]2[C@H](O1)[C@H](O)[C@@]1(C)[C@@H]3CC[C@H]4C(C)(C)[C@@H](OC(=O)N[C@@H]5CCNC5=O)CC[C@@]45C[C@@]35CC[C@]21C)C(C)(C)O: 140
CCO[C@@H]([C@H]1C[C@@H](C)[C@H]2[C@H](O1)[C@H](O)[C@@]1(C)[C@@H]3CC[C@H]4C(C)(C)[C@@H](OC(=O)N5CCN(CCOC)CC5)CC[C@@]45C[C@@]35CC[C@]21C)C(C)(C)O: 320

----------
# System: Liver microsomes
# ASSAY_SUMMARY: Metabolic stability in human liver microsomes at 1 uM after 60 mins by LC/MS/MS analysis
# STATED_CONDITIONS: 1 h
ASSAY_READOUT: Stability

CNC(=O)O[C@H]1CC[C@]23C[C@]24CC[C@]2(C)[C@@H]5[C@H](O[C@@H]([C@H](OC(=O)N6CCC6)C(C)C)C[C@H]5C)[C@H](O)[C@@]2(C)[C@@H]4CC[C@H]3C1(C)C: Stable
CC(C)[C@@H](OC(=O)N1CCC1)[C@H]1C[C@@H](C)[C@H]2[C@H](O1)[C@H](O)[C@@]1(C)[C@@H]3CC[C@H]4C(C)(C)[C@@H](OC(=O)N(C)CC(=O)O)CC[C@@]45C[C@@]35CC[C@]21C: Stable

Origin of values: ChEMBL document CHEMBL2203235
